- target: Cytochrome P450 2C9 (Homo sapiens)
- assay remarks: Cytochrome panel assay with activity outcomes
- condition summary: recombinant CYP, pro-luciferin dealkylation, luminescence, p450-cyp2c9; series mostly up to 57.1 µM
- Protocol: The P450 gene superfamily is involved in the metabolism and clearance of xenobiotics. This assay used various human CYP P450 isozymes to measure the dealkylation of various pro-luciferin substrates to luciferin. The luciferin is then measured by luminescence after the addition of a luciferase detection reagent. […] Inhibitors and some substrates limit the production of luciferin, and decrease measured luminescence. […] 8, Detection, 1 sec, ViewLux luminescent read […]
Hit rate of the full screen: of about 16,000 compounds, about 4,000 (25%) were called active. About 26% were inconclusive and are not listed. Calls follow the shape of the dose curve; as a rule, active = well fitted curve in the direction sought with a large enough effect; inconclusive = small, poorly fitted or top-dose-only effect, or effect the other way; inactive = no such curve, though single readings can be large or run the other way. Only a sample is shown.
Choose one outcome from this list and give only that: active, inactive

CN(Cc1ccco1)C(=O)C1CCC(=O)N1Cc1ccc(F)cc1 (centres undefined): inactive
O=C(CSc1ccc(Cl)cc1)Nc1cccc(-c2nc3ncccc3o2)c1: active
COc1c(N2CCN(C(=S)Nc3ccc(F)cc3)C(C)C2)c(F)cc2c(=O)c(C(=O)O)cn(C3CC3)c12 (centres undefined): inactive
COc1ccc(C(=O)N2CCC3(CCN(C)CC3)CC2)cc1: inactive
C=CCOc1c2ccc(C(=O)NC3CCCc4ccccc43)cc2nn1C (centres undefined): inactive

Prompt: Can you look up the reported call for `O=C(O)C[C@@H]1CCCc2ccccc2[C@H]1O` for me?
Completion: inactive

Prompt: Can you look up the reported call for O=C1c2ccccc2NC(c2ccc(F)cc2)N1Cc1ccco1 (centres undefined) for me?
Completion: active

Prompt: Can you look up the reported call for `Oc1ccc([C@@H]2CNCCc3c2cc(O)c(O)c3Cl)cc1` for me?
Completion: inactive

Prompt: Can you look up the reported call for `CCOc1cc(CNCCCN2CCOCC2)cc(Br)c1OCC(=O)Nc1cccc(C(F)(F)F)c1` for me?
Completion: inactive

Prompt: Can you look up the reported call for `C=C1C(=O)O[C@@H]2[C@H]3O[C@]3(C)CCC=C(C)CC[C@@H]12` for me?
Completion: inactive

Prompt: Can you look up the reported call for COc1ccc(/C=C2\CCCC3C2=NN(C(=O)c2ccco2)C3c2ccc(OC)c(OC)c2)cc1OC (centres undefined) for me?
Completion: active

Prompt: Can you look up the reported call for `Nc1ccc(C(=O)NCC(=O)O)cc1` for me?
Completion: inactive

Prompt: Can you look up the reported call for Cc1ncsc1C(=O)N1N=C2/C(=C/c3ccccc3)CCCC2C1c1ccccc1 (centres undefined) for me?
Completion: active

Prompt: Can you look up the reported call for CCCCNC(=O)C1CC(=O)N(CCC(C)C)C1 (centres undefined) for me?
Completion: inactive

Prompt: Can you look up the reported call for CC(C)(C)C(=O)[C@H]1[C@H](c2ccccc2)[C@@]2(N=C(c3ccccc3)OC2=O)C2c3ccccc3C=NN21 (some centres undefined) for me?
Completion: active

Prompt: Can you look up the reported call for CC(=O)N1CCN(C(=O)CC2OC(=O)c3ccccc32)CC1 (centres undefined) for me?
Completion: active

Prompt: Can you look up the reported call for `CCCCCC(=O)Nc1cccc(-c2nc3ncccc3o2)c1` for me?
Completion: active

Prompt: Can you look up the reported call for `O=C(O)c1c2ccccc2cc2ccccc12` for me?
Completion: inactive

Prompt: Can you look up the reported call for `CCNC(=O)c1ccc(-n2nc(C)cc2-c2ccccc2)cc1` for me?
Completion: active

Prompt: Can you look up the reported call for COc1ccc(C2Nc3ccccc3C(=O)N2Cc2ccco2)cc1COc1ccc([N+](=O)[O-])cc1 (centres undefined) for me?
Completion: active

Prompt: Can you look up the reported call for `N#Cc1c(NC(=O)C(F)(F)F)sc2c3c(=O)c4ccccc4c(=O)c=3oc3ccccc3c12` for me?
Completion: active

Prompt: Can you look up the reported call for CO[C@]1(NC(=O)C2SC(=C(C(N)=O)C(=O)O)S2)C(=O)N2C(C(=O)O)=C(CSc3nnnn3C)CS[C@H]21 (some centres undefined) for me?
Completion: inactive

Prompt: Can you look up the reported call for `COCCn1c(=O)cnc2cnc(Oc3cccc(Cl)c3)nc21` for me?
Completion: active

Prompt: Can you look up the reported call for `O=c1c(-c2ccc(Cl)cc2)nc2cncnc2n1Cc1ccccc1Cl` for me?
Completion: inactive

Prompt: Can you look up the reported call for `C/C(=N\OC(=O)c1ccc(F)cc1)c1nccs1` for me?
Completion: inactive

Prompt: Can you look up the reported call for `Cc1cnnn1-c1ccc(C(=O)CCl)cc1` for me?
Completion: inactive

Prompt: Can you look up the reported call for `O=c1c(-c2ccc(F)c(F)c2)nc2cncnc2n1Cc1ccccc1Cl` for me?
Completion: active

Prompt: Can you look up the reported call for `C=C(CC)C(=O)c1ccc(OCC(=O)O)c(Cl)c1Cl` for me?
Completion: active
